Target or test system: Ubiquitin carboxyl-terminal hydrolase 7 (Homo sapiens, UniProt Q93009)
Sequence (Q93009 whole entry): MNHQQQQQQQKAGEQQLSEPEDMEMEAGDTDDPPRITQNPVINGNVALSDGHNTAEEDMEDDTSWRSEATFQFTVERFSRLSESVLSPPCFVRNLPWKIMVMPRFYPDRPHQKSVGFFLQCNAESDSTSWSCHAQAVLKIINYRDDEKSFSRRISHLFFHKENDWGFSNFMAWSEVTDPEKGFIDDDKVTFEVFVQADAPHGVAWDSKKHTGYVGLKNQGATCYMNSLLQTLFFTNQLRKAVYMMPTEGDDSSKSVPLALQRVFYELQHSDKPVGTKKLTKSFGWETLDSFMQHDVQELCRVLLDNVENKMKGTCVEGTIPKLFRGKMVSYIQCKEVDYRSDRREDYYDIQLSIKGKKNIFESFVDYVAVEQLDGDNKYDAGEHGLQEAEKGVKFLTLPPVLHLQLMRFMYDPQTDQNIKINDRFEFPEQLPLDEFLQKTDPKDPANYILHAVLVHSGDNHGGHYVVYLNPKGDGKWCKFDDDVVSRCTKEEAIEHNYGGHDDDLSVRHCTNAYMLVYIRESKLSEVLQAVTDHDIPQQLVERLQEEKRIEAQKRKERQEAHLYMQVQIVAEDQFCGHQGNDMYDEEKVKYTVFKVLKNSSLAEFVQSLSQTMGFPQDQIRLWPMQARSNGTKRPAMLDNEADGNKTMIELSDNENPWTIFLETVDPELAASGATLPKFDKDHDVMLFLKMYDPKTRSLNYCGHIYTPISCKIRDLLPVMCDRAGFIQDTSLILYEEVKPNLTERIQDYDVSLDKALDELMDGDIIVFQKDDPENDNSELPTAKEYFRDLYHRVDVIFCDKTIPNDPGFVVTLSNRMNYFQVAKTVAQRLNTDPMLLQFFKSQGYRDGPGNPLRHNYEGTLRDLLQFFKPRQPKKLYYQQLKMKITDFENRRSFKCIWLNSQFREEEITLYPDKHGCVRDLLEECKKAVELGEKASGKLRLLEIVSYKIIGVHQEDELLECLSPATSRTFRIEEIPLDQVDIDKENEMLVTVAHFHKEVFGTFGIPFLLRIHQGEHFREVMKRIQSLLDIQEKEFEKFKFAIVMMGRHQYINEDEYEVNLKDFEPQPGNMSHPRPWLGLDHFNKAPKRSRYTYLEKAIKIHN
Experiment description: Inhibition of full-length recombinant USP7 (unknown origin) expressed in Sf9 cells using Ub-EKL as substrate preincubated for 30 mins followed by substrate addition by fluorescence based assay
Readout name: IC50

Query: Enter reported IC50 observed with Ubiquitin carboxyl-terminal hydrolase 7 (Homo sapiens, UniProt Q93009) for `CC(=O)c1cc([N+](=O)[O-])c(Sc2ccccc2)s1`
Response: > 50 µM

----------
Target or test system: Ubiquitin carboxyl-terminal hydrolase 7 (Homo sapiens)
Experiment description: Inhibition of USP7 (unknown origin) using Ub-Rh110 as substrate by fluorescence based assay
Readout name: IC50

[
  {
    "Molecule": "CC(CC(=O)N1CCC(O)(C(C)n2cnn3cccc3c2=O)CC1)c1ccccc1 (stereo not given)",
    "Observed value": "200 to 1000 nM"
  },
  {
    "Molecule": "CC(CC(=O)N1CCC(O)(C(C)n2cnc3cc[nH]c3c2=O)CC1)c1ccccc1 (stereo not given)",
    "Observed value": "< 500 nM"
  },
  {
    "Molecule": "CCCc1cc2c(=O)n(C(C)C3(O)CCN(C(=O)CC(C)c4ccccc4)CC3)cnc2s1 (stereo not given)",
    "Observed value": "300 to 1000 nM"
  },
  {
    "Molecule": "CC(=O)Nc1ccc2c(=O)n(C(C)C3(O)CCN(C(=O)CC(C)c4ccccc4)CC3)cnc2c1 (stereo not given)",
    "Observed value": "< 200 nM"
  }
]

We next turn to a different molecule, shown below.
Query: Please give the measured IC50 for this molecule: CC(CC(=O)N1CCC(O)(C(C)n2cnc3c(cnn3C)c2=O)CC1)c1ccccc1 (stereo not given)
Response: 200 to 1000 nM

----------
Target or test system: Ubiquitin carboxyl-terminal hydrolase 7 (Homo sapiens, UniProt Q93009)
Experiment description: Inhibition of human recombinant 6His-tagged USP7 using Ub-Rh110 as substrate preincubated for 30 mins followed by substrate addition measured after 180 mins by fluorometric analysis
Readout name: pIC50
// returns pIC50 (minus log10 of molar concentration), number only

Examples from the recorded data:
[
  {
    "Molecule smiles": "C[C@@]12CCCc3coc(c31)C(=O)c1cc3c(cc12)C(=O)C=CC3=O",
    "Observed value": 6.89
  },
  {
    "Molecule smiles": "C[C@@]12CCCc3coc(c31)C(=O)c1cc3c(=O)c4c(c(=O)c3cc12)c1c(=O)c2cc3c(cc2c(=O)c1c1c(=O)c2cc5c(cc2c(=O)c41)[C@]1(C)CCCc2coc(c21)C5=O)[C@]1(C)CCCc2coc(c21)C3=O",
    "Observed value": 6.12
  }
]

Next:
Query: Return reported pIC50; argument: `C[C@@]12CCCc3coc(c31)C(=O)c1cc3c(cc12)C(=O)C=C(C1=CC(=O)c2cc4c(cc2C1=O)C(=O)c1occ2c1[C@@]4(C)CCC2)C3=O`
Response: 6.31

----------
Target or test system: Ubiquitin carboxyl-terminal hydrolase 7 (Homo sapiens)
Experiment description: Inhibition of USP7 in human SJSA cells assessed as increase in ubiquitinated MDM2 level after 20 hrs in presence of MG132 by MSD assay
Format: cell-based
Readout name: IC50 (µM)
Express your answer in µM, writing the number without its unit.

Query: Value lookup for IC50; key = `CCc1c(-c2ccc3c(cnn3C)c2)cnc(N)c1-c1ccc(O)cc1`
Response: 2

----------
Target or test system: UniProt:Q93009
Experiment description: Inhibition of full-length native C-terminal USP7 (unknown origin) using Ub-Rho110 as substrate after 1 hr by fluorescence assay
Readout name: IC50

Query: Param readout= IC50; system= UniProt:Q93009; entry= `CCc1c(-c2ccc3c(cnn3C)c2)cnc(N)c1-c1ccc(O)cc1` ; returns value.
Response: > 63.3 µM

----------
Target or test system: Ubiquitin carboxyl-terminal hydrolase 7 (Homo sapiens, UniProt Q93009)
Experiment description: Inhibition of full-length USP7 (unknown origin) using Ub-AMC as substrate preincubated for 20 mins followed by substrate addition measured after 50 mins
Readout name: IC50 (µM)
Express it in µM; write the number only.

Query: Entry C[C@H]1[C@H](C)CC[C@]2(C(=O)O)CC[C@]3(C)C(=CC[C@@H]4[C@@]5(C)CC[C@H](O)C(C)(C)[C@@H]5CC[C@]43C)[C@H]12 [URSOLIC ACID] : reported IC50 = ?
Response: 7

----------
Target or test system: Ubiquitin carboxyl-terminal hydrolase 7 (Homo sapiens, UniProt Q93009, C223A)
Sequence (Q93009 whole entry C223A): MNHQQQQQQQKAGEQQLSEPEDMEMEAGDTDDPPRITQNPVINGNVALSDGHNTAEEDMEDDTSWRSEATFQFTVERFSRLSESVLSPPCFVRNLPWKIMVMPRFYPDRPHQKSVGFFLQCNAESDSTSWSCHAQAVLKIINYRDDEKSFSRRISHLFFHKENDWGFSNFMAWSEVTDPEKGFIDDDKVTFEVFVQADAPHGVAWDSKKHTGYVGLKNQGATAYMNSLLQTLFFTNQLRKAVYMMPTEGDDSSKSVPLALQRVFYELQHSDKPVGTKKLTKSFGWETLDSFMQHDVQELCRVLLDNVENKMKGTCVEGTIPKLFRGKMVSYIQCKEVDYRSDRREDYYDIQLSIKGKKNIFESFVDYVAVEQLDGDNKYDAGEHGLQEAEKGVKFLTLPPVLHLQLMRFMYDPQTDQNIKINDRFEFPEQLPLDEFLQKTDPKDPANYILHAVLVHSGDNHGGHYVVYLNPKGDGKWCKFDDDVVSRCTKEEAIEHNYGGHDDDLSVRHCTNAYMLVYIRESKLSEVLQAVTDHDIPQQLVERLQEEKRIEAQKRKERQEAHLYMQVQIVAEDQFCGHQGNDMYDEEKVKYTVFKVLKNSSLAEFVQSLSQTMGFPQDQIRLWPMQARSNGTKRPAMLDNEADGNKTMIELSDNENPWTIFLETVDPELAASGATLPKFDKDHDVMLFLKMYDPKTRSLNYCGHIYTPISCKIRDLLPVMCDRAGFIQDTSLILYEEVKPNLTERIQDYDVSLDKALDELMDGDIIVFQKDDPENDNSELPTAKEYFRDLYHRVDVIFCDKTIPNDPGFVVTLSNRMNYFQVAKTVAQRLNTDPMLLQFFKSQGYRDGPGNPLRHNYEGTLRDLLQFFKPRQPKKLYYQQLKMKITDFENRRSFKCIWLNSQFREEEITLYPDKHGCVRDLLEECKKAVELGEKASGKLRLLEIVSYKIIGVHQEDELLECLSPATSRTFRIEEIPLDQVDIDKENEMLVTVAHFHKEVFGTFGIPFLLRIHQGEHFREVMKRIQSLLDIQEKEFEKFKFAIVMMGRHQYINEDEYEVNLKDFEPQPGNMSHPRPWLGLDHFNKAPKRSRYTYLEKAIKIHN
Experiment description: Inhibition of human full-length wild-type His-tagged catalytic USP7 […] expressed in baculovirus infected Sf9 cells using Ub-AMC as substrate preincubated for 30 mins followed by substrate addition measured after 1 hrs by fluorometric analysis
Readout name: pIC50
Bear in mind: pIC50 is minus log10 of a mol/L concentration; give just that figure.

Query: Form entry - test system: Ubiquitin carboxyl-terminal hydrolase 7 (Homo sapiens, UniProt Q93009, C223A); read-out: pIC50; compound: `CN(CCCNC(=O)c1ccc2nc3c(c(Cl)c2c1)CCCC3)Cc1ccccc1`
Response: 4.55
